Where these numbers come from: PubChem BioAssay (EPA / NIEHS)

read-out: Monokine induced gamma interferon (MIG), CXCL9 (gene 4283); assay: BSK_SAg_MIG: BioMAP Diversity Plus: SAg Assay for Monokine induced gamma interferon (MIG) Biomarker Activity (AID 2283092); settings: primary human HUVEC with PBMC; actives raise or lower the signal
Active and inactive are the calls of the source. Rule for the calls: active = hit-call score of the fitted dose curve at least 0.9, where 1 is the maximum; inactive = score below 0.9.
Possible outcomes: active, inactive

- N#CCCCCC#N: inactive
- O=C1C(Cl)=C(Cl)C(=O)C(Cl)=C1Cl: active
- c1ccc(Nc2ccc3ccccc3c2)cc1: inactive
- O=c1[nH]c(Cl)c(Cl)cc1Cl: inactive
- O=[N+]([O-])O: inactive
- CCCCCCCCCCCC#N: inactive
- Cc1ccc(OP(=O)(Oc2ccc(C)cc2)Oc2ccc(C)cc2)cc1 (tested in a mixture with another compound): inactive
- O=c1c2ccccc2c(=O)c2c1cc(Cl)c1[nH]c3c([nH]c12)c(Cl)cc1c(=O)c2ccccc2c(=O)c13: inactive
